Test: BSK_hDFCGF_Proliferation: Cell Proliferation Assessment in the BioMAP Diversity Plus: hDFCGF Assay (AID 2283059);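 note: curves fitted for both rise and fall of signal versus DMSO baseline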
Conditions: primary human foreskin fibroblasts
Active and inactive are the calls of the source. Rule for the calls: active = hit-call score of the fitted dose curve at least 0.9, where 1 is the maximum; inactive = score below 0.9.
API: response.call in T (active), F (inactive)

INSERT INTO measurements (compound, discrete_label) VALUES
  ('COC(=O)c1sccc1S(=O)(=O)NC(=O)Nc1nc(C)nc(OC)n1', 'F');

Inquiry: Hey, what did the test say about "CCOC(=O)/C=C(C)/C=C/C[C@@H](C)CCCC(C)C" ?
Reply text: T

Inquiry: Hey, what did the test say about "CCOP(=S)(OCC)SCCS(=O)(=O)CC" ?
Reply text: F

Inquiry: Hey, what did the test say about CCC(=O)C(CC(C)N(C)C)(c1ccccc1)c1ccccc1 (centres undefined) ?
Reply text: F

Inquiry: Hey, what did the test say about "O=C(O)C(Cl)(Cl)Cl" ?
Reply text: F

Inquiry: Hey, what did the test say about "CCCCCCCCC(=O)NCc1ccc(O)c(OC)c1" ?
Reply text: F

Inquiry: Hey, what did the test say about "COP(=S)(OC)Oc1c(Cl)cc(C)cc1Cl" ?
Reply text: F

Inquiry: Hey, what did the test say about "CC(C)(C)c1cc(O)ccc1O" ?
Reply text: T

----------
Target: Estrogen receptor (Homo sapiens)
Assay: ATG_ERa_TRANS: Attagene TRANS-FACTORIAL HepG2 Assay for human Estrogen Receptor alpha (ERa) (AID 2282970)
Details: HepG2 Attagene TRANS ERa GAL4 reporter, mRNA
Inconclusive results are not listed. Active and inactive are the calls of the source. The calls were made as follows: active = hit-call score of the fitted dose curve at least 0.9, where 1 is the maximum; inconclusive = response in the unintended direction; inactive = score below 0.9.
API: response.call in true (1) for active, false (0) for inactive

Use these answered entries as a reference point.
INSERT INTO measurements (molecule, assayed_system, discrete_label) VALUES
  ('c1cc[c]([Hg][c]2ccccc2)cc1', 'Estrogen receptor (Homo sapiens)', 'false (0)'),
  ('COP(=S)(OC)Oc1cc(Cl)c(Cl)cc1Cl', 'Estrogen receptor (Homo sapiens)', 'true (1)'),
  ('C1CCC(NC2CCCCC2)CC1', 'Estrogen receptor (Homo sapiens)', 'true (1)'),
  ('CC(=O)C=C(C)C', 'Estrogen receptor (Homo sapiens)', 'false (0)'),
  ('CCOP(=S)(OCC)Oc1nc(Cl)c(Cl)cc1Cl', 'Estrogen receptor (Homo sapiens)', 'true (1)'),
  ('CCCCP(CCCC)CCCC', 'Estrogen receptor (Homo sapiens)', 'false (0)'),
  ('Nc1ccc(-c2ccc(N)c(Cl)c2)cc1Cl', 'Estrogen receptor (Homo sapiens)', 'true (1)'),
  ('COC[C@H](C)N(C(=O)CCl)c1c(C)csc1C', 'Estrogen receptor (Homo sapiens)', 'false (0)'),
  ('CC(C)c1ccc(CO)cc1', 'Estrogen receptor (Homo sapiens)', 'true (1)'),
  ('CC(C)c1cccc(C(C)C)c1O', 'Estrogen receptor (Homo sapiens)', 'false (0)');

Inquiry: Hey, what did the test say about "Cc1ccc(N)cc1Cl" ?
Reply text: false (0)

Inquiry: Hey, what did the test say about Clc1ccc(C2(Cn3cncn3)CC(Br)CO2)c(Cl)c1 (stereo not drawn) ?
Reply text: true (1)

Inquiry: Hey, what did the test say about CCC1(c2ccc(N)cc2)CCC(=O)NC1=O (stereo not drawn) ?
Reply text: false (0)

----------
Assay: ATG_NRF2_ARE_CIS: Attagene CIS-FACTORIAL HepG2 Assay for human Nuclear Factor Erythroid 2 Related Factor 2 (NFR2) response to Antioxidant Response Elements (ARE) (AID 2282992)
Settings: HepG2 Attagene ARE/NRF2 reporter, transcription factor activity; actives raise or lower the signal
Active and inactive are the calls of the source. Rule for the calls: active = hit-call score of the fitted dose curve at least 0.9, where 1 is the maximum; inactive = score below 0.9.
API: response.call in 1 (yes) for active, 0 (no) for inactive

INSERT INTO results (molecule, discrete_label) VALUES
  ('CN(CCCC(=O)c1cccnc1)N=O', '0 (no)'),
  ('CC(C)(OO)c1ccccc1', '0 (no)'),
  ('O=S(=O)(c1ccc(Cl)cc1)c1ccc(Cl)cc1', '1 (yes)'),
  ('CC1(C)CCC(Cc2ccc(Cl)cc2)C1(O)Cn1cncn1 (stereo not given)', '1 (yes)'),
  ('Oc1c(I)cc(I)cc1I', '0 (no)'),
  ('Clc1ccc(C2(Cn3cncn3)CC(Br)CO2)c(Cl)c1 (stereo not given)', '1 (yes)'),
  ('O=C/C=C/c1ccccc1', '1 (yes)'),
  ('O=C(CCl)CCl', '1 (yes)');

Inquiry: Hey, what did the test say about "CC(C)c1ccc(CO)cc1" ?
Reply text: 0 (no)

Inquiry: Hey, what did the test say about "CCN1CCC2(CC1)COc1cc3c(cc12)N(C(=O)c1ccc(-c2ccc(-c4nnc(C)o4)cc2C)cc1)CC3" ?
Reply text: 1 (yes)

The measurements presented in this section are drawn from PubChem BioAssay (EPA / NIEHS).
